Target: human plasma protein factor Xa (Homo sapiens, UniProt P00742)
Construct: measure proteolytic activity of the enzyme (factor Xa)
Sequence (P00742 235-488 limits assumed): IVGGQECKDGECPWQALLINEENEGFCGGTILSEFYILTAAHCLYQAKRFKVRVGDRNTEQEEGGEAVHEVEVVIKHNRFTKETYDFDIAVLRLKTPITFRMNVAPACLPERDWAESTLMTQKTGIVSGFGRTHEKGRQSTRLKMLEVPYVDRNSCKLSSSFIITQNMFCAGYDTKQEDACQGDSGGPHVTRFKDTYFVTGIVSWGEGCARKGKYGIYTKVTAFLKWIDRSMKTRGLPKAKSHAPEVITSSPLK
Sequence (P00742 41-179 partner limits assumed): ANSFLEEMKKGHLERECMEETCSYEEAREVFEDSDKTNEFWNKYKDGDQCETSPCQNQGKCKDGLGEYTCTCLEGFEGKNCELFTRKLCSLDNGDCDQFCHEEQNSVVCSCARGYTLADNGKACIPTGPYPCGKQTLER
Test: Factor Xa IC50 determination: cleavage of paranitroanilide substrate S-2765 in 96-well plates
Settings: fXa 1 nM, S-2765 100 μM, Tris buffered saline pH 7.4, room temperature
measurement_name: IC50

Sample records with IC50:
1. Cc1cnccc1Nc1ccc(C2=NOC(CNC(=O)c3ccc(Cl)s3)C2)cc1 (stereo not drawn) = ≤ 100 nM
2. N=C(c1ccc(-n2cnc(CNC(=O)c3ccc(Cl)s3)c2)cc1)N1CCC1 = ≤ 100 nM
3. CCCN(C)C(=N)c1ccc(C2=NOC(CNC(=O)c3ccc(Cl)s3)C2)cc1 (stereo not drawn) = ≤ 100 nM

Let us move to another entry and its IC50.
Find the recorded IC50 belonging to O=C(NCC1CC(c2ccc(Nc3ccnc(Cl)c3)cc2)=NO1)c1ccc(Cl)s1 (stereo not drawn) and report it.
100 to 500 nM

====

Target: human plasma protein factor Xa (Homo sapiens)
Construct: measure proteolytic activity of the enzyme (factor Xa)
Experiment: Factor Xa IC50 determination: cleavage of paranitroanilide substrate S-2765 in 96-well plates
Details: fXa 1 nM, S-2765 100 μM, Tris buffered saline pH 7.4, room temperature
pIC50: −log10 of the molar value.
measurement_name: pIC50

Find the recorded pIC50 belonging to N=C(c1ccc(-c2cc(CNC(=O)c3ccc(Cl)s3)on2)c(Oc2ccccc2)c1)N1CCCC1 [Example 132] and report it.
≥ 7.00

====

Biological target: human plasma protein factor Xa (Homo sapiens, UniProt P00742)
Construct: measure proteolytic activity of the enzyme (factor Xa)
Experiment: Factor Xa IC50 determination: cleavage of paranitroanilide substrate S-2765 in 96-well plates
Conditions: fXa 1 nM, S-2765 100 μM, Tris buffered saline pH 7.4, room temperature
measurement_name: IC50

Sample records with IC50:
1. N=C(c1ccc(-n2cc(CNC(=O)c3ccc(Cl)s3)nn2)cc1)N1CCCCC1 = ≤ 100 nM
2. COc1cc(C(=N)N2CCCC2)ccc1-c1cc(CNC(=O)c2ccc(Cl)s2)on1 = ≤ 100 nM
3. O=C(NCc1cn(-c2ccc(N3CCOCCC3=O)cc2)nn1)c1ccc(Cl)s1 = ≤ 100 nM
4. CN(C)C(=N)c1ccc(C2=NOC(CNC(=O)c3ccc(Cl)s3)C2)c(OC2CCCCC2)c1 (centres unmarked) = ≤ 100 nM
5. COC(=O)c1cccc(Nc2ccc(C3=NOC(CNC(=O)c4ccc(Cl)s4)C3)cc2)c1 (centres unmarked) = ≥ 500 nM

Find the recorded IC50 belonging to CCOC(=O)C1CCN(C(=N)c2ccc(-c3cc(CN(C)C(=O)c4ccc(Cl)s4)on3)cc2)CC1 and report it.
≥ 500 nM

Find the recorded IC50 belonging to CN(C)c1cc(C(=N)N2CCCCC2)ccc1-c1cc(CNC(=O)c2ccc(Cl)s2)on1 and report it.
≤ 100 nM

Find the recorded IC50 belonging to CSc1cc(C(=N)N(C)C)ccc1-c1cc(CNC(=O)c2ccc(Cl)s2)on1 and report it.
≤ 100 nM

====

Molecular target: human plasma protein factor Xa (Homo sapiens, UniProt P00742)
Construct: measure proteolytic activity of the enzyme (factor Xa)
Assay: Factor Xa IC50 determination: cleavage of paranitroanilide substrate S-2765 in 96-well plates
Settings: fXa 1 nM, S-2765 100 μM, Tris buffered saline pH 7.4, room temperature
pIC50: −log10 of the molar value.
Listed below: pIC50 values for each entry.

Sample records with pIC50:
1) CC(C)Oc1cc(C(=N)N(C)C)ccc1-c1cc(CNC(=O)c2ccc(Cl)s2)on1 = ≥ 7.00
2) CNC(=N)c1ccc(-c2cc(CN(C)C(=O)c3ccc(Cl)s3)on2)cc1 = ≥ 7.00
3) O=C(NCc1cc(-c2ccc(N3CCOCC3)cc2)no1)c1ccc(Cl)s1 = ≤ 6.30

Let us move to another entry and its pIC50.
Find the recorded pIC50 belonging to O=C(NCc1cn(-c2ccc(N3CCCOCC3)nc2)nn1)c1ccc(Cl)s1 and report it.
6.30 to 7.00
